melting point reference

Some compounds with recorded melting point:
Clc1cc(Cl)c2oc(-c3ccc(C=Cc4ccc(-c5ccccc5)cc4)cc3)cc2c1	258 to 260 °C
Cc1ccc(S(=O)(=O)N2CCCC(CS(=O)(=O)c3ccccc3)C2)cc1 (stereo unspecified)	135 to 136 °C
O=C(O)CCc1conc1-c1ccc(Cl)c(Cl)c1	181 to 182 °C
CC(=N)Nc1cccc(Br)c1	208 to 210 °C
CON=C(c1ccccc1)c1ccccc1N	138 °C

Kindly review the next compound as well.
Which value of melting point has been reported for N#Cc1ccc(N2CCC(O)C2)c2ccccc12 (stereo unspecified) in the records?
138 to 139 °C

---

parameter: melting point

Field: example entries. Status: answers known.
CCNC(=O)Nc1cc(-c2c(-c3ccc(F)c(C)c3)nc3ccc(NC)nn23)ccn1	263 to 264 °C
CCOC(=O)c1ccc(C(C(N)=O)C(CCc2ccccc2)c2ccccc2N2CCCCC2)cc1 (centres undefined)	118 to 119 °C

# get_value(readout='melting point', item= CCc1ccc2oc(C(=O)Nc3ccc(-c4ccc(S(=O)(=O)NC(C(=O)OC)C(C)C)cc4)cc3)c(C)c2c1OC (centres undefined) )
170 to 172 °C

Data request, read-out melting point, for COc1ccc2c(c1)CCN1C(=O)C3=C(CC21)NCCC3 (centres undefined)
202 to 205 °C

---

# reported melting point; entries follow

O=C(Nc1cccc2c(=O)cc(C(=O)O)oc12)c1ccc2c(c1)CCC(CCCc1ccccc1)O2 (configuration not stated)	325 to 326 °C
COc1cc(O)c(C(=O)C=Cc2ccc3nc[nH]c3c2)c(OC)c1	147 to 149 °C
Cc1cc(C)c2c(c1C)OC(C)(C)C2c1ccc(F)cc1 (configuration not stated)	109 to 110 °C

# get_value(readout='melting point', item= `COc1cc(OC)cc(-c2ncn(-c3cc(OC)c(OC)c(OC)c3)c2-c2ccc(N(C)C)cc2)c1` )
151 to 154 °C

---

# melting point annotations

Consider the following illustrative entries.
O=C(NCCCn1ccnc1)c1ccccc1NS(=O)(=O)c1ccc(I)cc1	162 to 166 °C
O=C(O)/C=C/c1ccc(OCC2CCCO2)cc1Oc1ncc(C(F)(F)F)cc1Cl (stereo unspecified)	106 to 109 °C
COC(=O)C(=Cc1ccc(OC)c(OC)c1)C(C)=O	93 to 95 °C
CC(C)=CC(C)(S)[C@@H](NC=O)C(=O)O (stereo partly specified)	183 to 184 °C

Report melting point for `CC(=O)Nn1cnc2c(Br)csc2c1=O` please.
273 °C

Tell me the measured melting point of O=C(NCCO)c1cccc(-c2ccc3c(n2)C(Oc2ccc(Cl)cc2Cl)CC3)c1 (stereo unspecified) , please.
181 to 182 °C

Look up melting point: `COc1nc(SC)nc(Cl)c1C(=O)O`
179 to 181 °C

Quick one: melting point for `Cc1cc(CCNc2ncnc3c(F)ccc(F)c23)ccc1Oc1cc(C(F)(F)F)ccn1` ?
108 to 110 °C

---

parameter: melting point

CC1(C)C(=O)C(c2ccccc2)=C1c1ccc(S(N)(=O)=O)cc1	142 to 144 °C
COCc1nc(C)c2c(n1)N(Cc1ccc(Br)cc1)C(=O)CC2	64 to 66 °C
CC(=O)c1cc(C#N)c(=O)[nH]c1C=CN(C)C	267 to 270 °C
CC(C)n1c(=O)n(C(=O)NC2CCN(C)CC2)c2ccccc21	204 to 205 °C
CC(C)CCn1cn[nH]c1=O	78 to 79 °C
O=C1NC(=O)C(CC#Cc2ccc(Cl)cc2)(S(=O)(=O)c2ccccn2)S1 (stereo unspecified)	140 to 141 °C
CSc1nc(NCCC(C)C)c2[nH]nc(C)c2n1	90 to 95 °C
CCCCCCCC(=O)NCCCCCCOS(C)(=O)=O	62 to 63 °C
CC(C)c1ccn2nc(S(=O)(=O)Cl)nc2n1	60 to 62 °C
COC(=O)[C@H](CO)NC(=O)c1ncn2c1CN(C)C(=O)c1ccccc1-2	180 to 181 °C

Tell me the measured melting point of `O=C(CCl)Nc1cccc([N+](=O)[O-])c1` , please.
110 to 112 °C

---

The reader will find reported melting point values listed item by item below.

Would you please look over these solved cases?
Cc1c(-c2ccccc2)[nH]c2ccc(Cl)cc2c1=O	296 to 302 °C
N#Cc1ccc(-c2c[nH]cn2)cc1	164 to 167 °C

Quick check: melting point of `CCOc1ccc(OCc2ccc(OCc3nc(-c4ccccc4)oc3C)cc2)c(CCC(=O)O)c1` ?
115 to 116 °C

Please give the measured melting point for this compound: `CCCn1c(=O)c2c(N)n[nH]c2n(Cc2ccccc2)c1=O`
214 to 215 °C

Dear colleague, I am looking for the recorded melting point of the following compound: `CC(=O)/C=C(\C)c1ccc(C2CCCCC2)c(Br)c1`
52 to 53 °C

Fill blank: measured melting point of the compound `CC1(C)CC(O)CC(C)(C)N1CC#CCN1C(C)(C)CC(O)CC1(C)C` is ____.
203 °C

---

This section presents molecules with their documented melting point values.

CCOC(=O)c1sc2cccc(O)c2c1C	183 to 184 °C
CNC(=O)c1c(OC(C)C)c2cc(OC)ccc2n1C	85 to 86 °C
CNCCc1c(C)[nH]c2ccc(S(=O)(=O)c3ccccc3)cc12	165 to 166 °C
CC1=C(c2ccccc2)n2nc(C)c3c(=O)[nH]c(=S)n(c32)C1	255 to 257 °C
CS(=O)(=O)c1cnc(-c2nn(Cc3ccccc3F)c3ncccc23)nc1N	272 °C
O=C1CC2CCSc3sccc3C2=NN1c1ccc(Cl)cc1 (stereo unspecified)	134 to 135 °C

Entry Cc1cccc(C(O)c2cncn2C(c2ccccc2)(c2ccccc2)c2ccccc2)c1C (stereo unspecified) has what melting point?
203 to 207 °C

Given CN1C(=O)CCC1(O)c1ccc(Cl)c(N)c1 (stereo unspecified) , state its recorded melting point.
154 °C

// query melting point value for entry `O=c1[nH]nnn1-c1ccc(OCc2ccc(F)cc2)cc1F`
171 to 172 °C

What value of melting point has been reported for the following molecule? `CCOc1ccnc(Cl)n1`
30 to 31 °C

Consider the molecule shown here: `C[C@@H](n1cnc2ccc(F)cc2c1=O)[C@](O)(Cn1cncn1)c1ccc(F)cc1F` What is its recorded melting point?
192 to 193 °C

---

parameter: melting point

Worked examples, 5 molecules total:
CCCCCCCCCCCCCCCCC(C)C(=S)OC (stereo not given)	39 to 40 °C
Nc1ccc(SCc2csc(N)n2)cc1	130 to 132 °C
C[C@@H](S)[C@](O)(Cn1ccnc1)c1ccc(F)cc1F	125 to 135 °C
O=C(N[C@H]1CCCNC1=O)c1cc(F)cc(F)c1	198 to 199 °C
O=S(=O)(Cc1ccc(C(O)c2ccc(Cl)cc2)cc1)C(F)(F)F (stereo not given)	113 to 115 °C

Param item = `CC1(C)C(=O)Nc2ccc(-c3cccc(C#N)c3F)cc21` ; retrieve measured melting point.
231 to 232 °C

Given the molecule `Cc1noc(NC(=O)N2CCN(c3cncc(-c4ccc(F)cc4F)n3)CC2)c1C` , what is its reported melting point?
225 to 226 °C

Given the entry Cc1c([N+](=O)[O-])ccc2c1SC1(Cl)C=C(C(F)(F)F)C=C(Cl)C1O2 (stereo not given) , report its measured melting point.
135 °C

What melting point value was documented for this molecule, C[C@H](NC(=O)[C@@H](Cc1ccccc1)NS(=O)(=O)Cc1ccccc1)C(=O)NC1CCc2nc(N)sc2C1 (stereo not given in full) ?
122 to 125 °C

Data request, read-out melting point, for `C=CCS(=O)(=O)c1cccnc1S(N)(=O)=O`
178 °C

---

Listing: melting point of selected compounds

Please review the entries below; each comes with its answer.
O=C(Oc1ccc([N+](=O)[O-])cc1)C(O)O	100 to 102 °C
CCC(C)(O)C#Cc1ccc(C(CC2CCCC2)C(=O)O)cc1 (centres undefined)	91 to 94 °C
CCOC(=O)c1c(C)nc2[nH]c3ccccc3c2c1N	253 to 254 °C

Would you kindly share the measured melting point for COc1ccc(N(C(=O)CN2C(=O)C(C)(Cc3n[nH]c4ccccc34)C(=O)N(c3cccnc3)c3ccccc32)C(C)C)cc1 (centres undefined) ?
161 to 165 °C

Given the entry COc1ccc(CNc2cc(C(O)CNC(C)(C)CCn3cnc4ccccc43)ccc2O)cc1 (centres undefined) , report its measured melting point.
154 to 155 °C

Quick one: melting point for `CCOC(=O)c1cc(=O)c2c(ccc3nc(C(=O)OC)cc(O)c32)o1` ?
247 to 248 °C

---

Quick reference: melting point of the listed items.

CC(=O)Nc1ccc(C=CC(=O)C2C(=O)OC(=O)C(C(C)=O)=C2O)cc1 (stereo not given)	230 to 231 °C
NC1=NC(c2cccc(-c3cccnc3F)c2)(c2ccc3c(c2)OCO3)C2=NCCCN12 (stereo not given)	106 to 119 °C
C[Si](C)(C)N=C(C(=N[Si](C)(C)C)c1ccccc1)c1ccccc1	69 to 70 °C
COc1ccc(C2=NC(C)(C)C(c3cccs3)C2)cc1 (stereo not given)	84 °C

Record request: melting point value, item CCc1cccc(CC)c1NC(=O)C(Cc1ccccc1)NC(C)=O (stereo not given)
205 to 206 °C
